Please respond with reported log D7.4 for every item in the list.
assay.method.text: Lipophilicity determination by RP-HPLC (log k, log D)
Format: physicochemical
run.parameters: RP-HPLC, MeOH 72%/acetate buffered saline pH 7.4
One number for each entry.

Please review the following examples before continuing.
compound.smiles: CCNC(=O)Oc1c(C(=O)Nc2cc(Cl)c(Cl)cc2Cl)ccc2ccccc12
log D7.4: 0.8339
//
compound.smiles: O=C(NC1CCCCCC1)Oc1c(C(=O)Nc2cc(Cl)c(Cl)cc2Cl)ccc2ccccc12
log D7.4: 1.4527
//
compound.smiles: CCCCNC(=O)Oc1c(C(=O)Nc2cc(Cl)c(Cl)cc2Cl)ccc2ccccc12
log D7.4: 1.1401
//
compound.smiles: O=C(NCCc1ccccc1)Oc1c(C(=O)Nc2cc(Cl)c(Cl)cc2Cl)ccc2ccccc12
log D7.4: 1.2470
//
compound.smiles: CCCCCCCCNC(=O)Oc1c(C(=O)Nc2cc(Cl)c(Cl)cc2Cl)ccc2ccccc12
log D7.4: 1.8785

// switching to the query compound
Exam item: Consider the compound `CCCCCNC(=O)Oc1c(C(=O)Nc2cc(Cl)c(Cl)cc2Cl)ccc2ccccc12` and give its measured log D7.4.
Marked response: 1.3168

These data points were gathered from paper PMC9228535.
